What normalized RNA/DNA level without ligand (log10) was measured for each of the following?
B1: library; a variant is named by its letters at N, in order (parent)
chain: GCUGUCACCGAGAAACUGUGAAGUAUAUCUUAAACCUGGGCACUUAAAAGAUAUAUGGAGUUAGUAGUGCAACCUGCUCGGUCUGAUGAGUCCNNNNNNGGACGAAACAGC

variants of: B1; test: normalized RNA/DNA level without ligand (relative to sTRSVctl = 100) (log10 (% of sTRSVctl)); HEK293T; ligand: cyclic di-GMP (c-di-GMP-II aptamer); higher = less ribozyme self-cleavage, higher mRNA level; conditions: reporter: mCherry (pCS4076), ligand present: no
Numbers only.

Examples with their reported normalized RNA/DNA level without ligand (log10) follow.
UCUGUG	1.73
GUUUUA	1.63
GUUCCC	1.8
GUCAGC	1.67
GGGUAC	1.73
UGGCCA	1.79
GAAACA	1.61
ACCGUU	1.52
AUUCAU	1.74
UCCGAC	1.65

Please report normalized RNA/DNA level without ligand (log10) for every entry that follows.
1. AACUGC
2. CUGAUA
3. GAAGCA
4. UACACA
5. UUACUU

1. 1.69
2. 1.27
3. 1.8
4. 1.7
5. 1.68

For each listed entry, give its normalized RNA/DNA level without ligand (log10).
1. AUACAU
2. CCUUUU

[1.62, 1.59]

# return normalized RNA/DNA level without ligand (log10) for each item in the list
1. CAGUGA
2. CUACGG
3. GUCUUU
4. UUUCCA
5. AAAAGC

1. 1.52
2. 1.8
3. 1.7
4. 1.78
5. 1.58

Each variant below has a reported value. Please supply its normalized RNA/DNA level without ligand (log10).
1. AGUACA
2. ACUUAG
3. CGUAUA
4. AUUUUC
5. ACAGGU
6. UUAAGC

1.51
1.59
1.3
1.74
1.42
1.73
